These data points were gathered from paper PMC12314576.

Target: Par17 (Homo sapiens)
Construct: full‐length Par17 and the N‐terminus of Par17; GST-His6 (PreScission site) (N, cleaved yes); Gly-Pro remnant of the PreScission site (Gly stands at position 1 in place of Met1); made in house; host or cells: E. coli BL21 (DE3) T1r
Assay: NMR titration of substrate peptides to 15N-labeled full-length Par17
Type: binding
Conditions: peptide 3 mM; 300 μM Par17, KPi pH 6.7, 20°C
Starred links: 1 amine or outer side, 2 acyl side, 3 side chain; linkers in the order of their positions; H or OH if unused. Residues, ends and D or L forms follow the SMILES beside them. *: point of attachment. pNA = O=[N+]([O-])c1ccc(N*)cc1; Suc = O=C(CCC(=O)[*:2])[*:1]
MEASURED ATTRIBUTE: Combined chemical shift perturbation of full length Par17, 116V

In: Can you share its Combined chemical shift perturbation of full length Par17, 116V? I mean this molecule: C[C@H](NC(=O)CCC(=O)O)C(=O)N[C@@H](CCCNC(=N)N)C(=O)N1CCC[C@H]1C(=O)N[C@@H](Cc1ccccc1)C(=O)Nc1ccc([N+](=O)[O-])cc1 [Arg, Suc‐Ala‐Arg‐Pro‐Phe‐pNa] (Suc-ARPF-pNA)
Out: 0,23776807 ppm

Attention now shifts to the item below.
In: Can you share its Combined chemical shift perturbation of full length Par17, 116V? I mean this molecule: C[C@H](NC(=O)CCC(=O)O)C(=O)NCC(=O)N1CCC[C@H]1C(=O)N[C@@H](Cc1ccccc1)C(=O)Nc1ccc([N+](=O)[O-])cc1 [Gly, Suc‐Ala‐Gly‐Pro‐Phe‐pNa] (Suc-AGPF-pNA)
Out: 0,302 ppm

* * *

Molecular target: PPIase domain (Par17Δ1-60) (Homo sapiens, UniProt Q9Y237)
Construct: GST-His6 (PreScission site) (N, cleaved yes); made in house; host or cells: E. coli BL21 (DE3) T1r
Sequence (Q9Y237 36-131, stated change not applied): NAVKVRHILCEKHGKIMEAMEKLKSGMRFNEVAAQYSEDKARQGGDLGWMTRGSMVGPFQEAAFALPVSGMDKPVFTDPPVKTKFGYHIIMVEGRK
Assay: Protease-coupled isomerase assay (PPIase assay) with the catalytic domain
Type: biochemical
Conditions: α-chymotrypsin 35 μM, PBS pH 6.8, 10°C, substrate 75 μM, PPIase 2 μM, absorbance 390 nm; mean ± SD
Starred links: 1 amine or outer side, 2 acyl side, 3 side chain; linkers in the order of their positions; H or OH if unused. Residues, ends and D or L forms follow the SMILES beside them. *: point of attachment. pNA = O=[N+]([O-])c1ccc(N*)cc1; Suc = O=C(CCC(=O)[*:2])[*:1]
Returns one of 1 or -1; 1 when k = kobserved - kthermic, PPIase domain (Par17Δ1-60) is >= 0.3 min⁻¹.

Use the examples below as a reference point.
In: Kindly determine if k = kobserved - kthermic, PPIase domain (Par17Δ1-60) recorded for C[C@H](NC(=O)CCC(=O)O)C(=O)N[C@@H](CCCNC(=N)N)C(=O)N1CCC[C@H]1C(=O)N[C@@H](Cc1ccccc1)C(=O)Nc1ccc([N+](=O)[O-])cc1 [Arg, Suc‐Ala‐Arg‐Pro‐Phe‐pNa] (Suc-ARPF-pNA) is above or exactly 0.3 min⁻¹.
Out: 1

In: Kindly determine if k = kobserved - kthermic, PPIase domain (Par17Δ1-60) recorded for C[C@H](NC(=O)CCC(=O)O)C(=O)NCC(=O)N1CCC[C@H]1C(=O)N[C@@H](Cc1ccccc1)C(=O)Nc1ccc([N+](=O)[O-])cc1 [Gly, Suc‐Ala‐Gly‐Pro‐Phe‐pNa] (Suc-AGPF-pNA) is above or exactly 0.3 min⁻¹.
Out: -1

Further cases:
In: Kindly determine if k = kobserved - kthermic, PPIase domain (Par17Δ1-60) recorded for C[C@H](NC(=O)CCC(=O)O)C(=O)N[C@@H](CCC(=O)O)C(=O)N1CCC[C@H]1C(=O)N[C@@H](Cc1ccccc1)C(=O)Nc1ccc([N+](=O)[O-])cc1 [Glu, Suc–Ala–Glu–Pro–Phe–pNa] (Suc-AEPF-pNA) is above or exactly 0.3 min⁻¹.
Out: -1

In: Kindly determine if k = kobserved - kthermic, PPIase domain (Par17Δ1-60) recorded for CC(C)[C@H](NC(=O)[C@H](C)NC(=O)CCC(=O)O)C(=O)N1CCC[C@H]1C(=O)N[C@@H](Cc1ccccc1)C(=O)Nc1ccc([N+](=O)[O-])cc1 [Val, Suc‐Ala‐Val‐Pro‐Phe‐pNa] (Suc-AVPF-pNA) is above or exactly 0.3 min⁻¹.
Out: -1

In: Kindly determine if k = kobserved - kthermic, PPIase domain (Par17Δ1-60) recorded for C[C@H](NC(=O)CCC(=O)O)C(=O)N[C@@H](CCCCN)C(=O)N1CCC[C@H]1C(=O)N[C@@H](Cc1ccccc1)C(=O)Nc1ccc([N+](=O)[O-])cc1 is above or exactly 0.3 min⁻¹.
Out: 1

* * *

Target: Par17 (Homo sapiens)
Construct: full‐length Par17 and the N‐terminus of Par17; GST-His6 (PreScission site) (N, cleaved yes); Gly-Pro remnant of the PreScission site (Gly stands at position 1 in place of Met1); made in house; host or cells: E. coli BL21 (DE3) T1r
Test: Protease-coupled isomerase assay (PPIase assay) with Par17
Type: biochemical
Settings: α-chymotrypsin 35 μM, PBS pH 6.8, 10°C, substrate 75 μM, PPIase 2 μM, absorbance 390 nm; mean ± SD
Starred links: 1 amine or outer side, 2 acyl side, 3 side chain; linkers in the order of their positions; H or OH if unused. Residues, ends and D or L forms follow the SMILES beside them. *: point of attachment. pNA = O=[N+]([O-])c1ccc(N*)cc1; Suc = O=C(CCC(=O)[*:2])[*:1]
MEASURED ATTRIBUTE: k = kobserved - kthermic, Par17 (min⁻¹)
One number for each entry, in min⁻¹.

Check out these entries, answers already filled in.
In: Can you share its k = kobserved - kthermic, Par17? I mean this molecule: C[C@H](NC(=O)CCC(=O)O)C(=O)N[C@@H](CCCNC(=N)N)C(=O)N1CCC[C@H]1C(=O)N[C@@H](Cc1ccccc1)C(=O)Nc1ccc([N+](=O)[O-])cc1 [Arg, Suc‐Ala‐Arg‐Pro‐Phe‐pNa] (Suc-ARPF-pNA)
Out: 0.470

In: Can you share its k = kobserved - kthermic, Par17? I mean this molecule: CC(C)[C@H](NC(=O)[C@H](C)NC(=O)CCC(=O)O)C(=O)N1CCC[C@H]1C(=O)N[C@@H](Cc1ccccc1)C(=O)Nc1ccc([N+](=O)[O-])cc1 [Val, Suc‐Ala‐Val‐Pro‐Phe‐pNa] (Suc-AVPF-pNA)
Out: 0.011

Attention now shifts to the item below.
In: Can you share its k = kobserved - kthermic, Par17? I mean this molecule: C[C@H](NC(=O)CCC(=O)O)C(=O)N[C@@H](CCCCN)C(=O)N1CCC[C@H]1C(=O)N[C@@H](Cc1ccccc1)C(=O)Nc1ccc([N+](=O)[O-])cc1
Out: 0.33

* * *

Target: Par17 (Homo sapiens, UniProt Q9Y237)
Construct: full‐length Par17 and the N‐terminus of Par17; GST-His6 (PreScission site) (N, cleaved yes); Gly-Pro remnant of the PreScission site (Gly stands at position 1 in place of Met1); made in house; host or cells: E. coli BL21 (DE3) T1r
Sequence (Q9Y237 1-156 isoform Q9Y237-2): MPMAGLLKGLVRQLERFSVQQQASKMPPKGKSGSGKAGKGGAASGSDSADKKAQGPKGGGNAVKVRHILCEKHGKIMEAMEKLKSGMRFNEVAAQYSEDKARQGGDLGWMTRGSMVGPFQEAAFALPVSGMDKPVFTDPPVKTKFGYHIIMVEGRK
Assay: NMR titration of substrate peptides to 15N-labeled full-length Par17
Assay type: binding
Conditions: peptide 3 mM; 300 μM Par17, KPi pH 6.7, 20°C
Starred links: 1 amine or outer side, 2 acyl side, 3 side chain; linkers in the order of their positions; H or OH if unused. Residues, ends and D or L forms follow the SMILES beside them. *: point of attachment. pNA = O=[N+]([O-])c1ccc(N*)cc1; Suc = O=C(CCC(=O)[*:2])[*:1]
MEASURED ATTRIBUTE: Combined chemical shift perturbation of full length Par17, 119F

In: Can you share its Combined chemical shift perturbation of full length Par17, 119F? I mean this molecule: C[C@H](NC(=O)CCC(=O)O)C(=O)N[C@@H](CCC(=O)O)C(=O)N1CCC[C@H]1C(=O)N[C@@H](Cc1ccccc1)C(=O)Nc1ccc([N+](=O)[O-])cc1 [Glu, Suc–Ala–Glu–Pro–Phe–pNa] (Suc-AEPF-pNA)
Out: 0,18213 ppm

In: Can you share its Combined chemical shift perturbation of full length Par17, 119F? I mean this molecule: C[C@H](NC(=O)CCC(=O)O)C(=O)N[C@@H](CCCCN)C(=O)N1CCC[C@H]1C(=O)N[C@@H](Cc1ccccc1)C(=O)Nc1ccc([N+](=O)[O-])cc1
Out: 0,05880948 ppm

In: Can you share its Combined chemical shift perturbation of full length Par17, 119F? I mean this molecule: C[C@H](NC(=O)CCC(=O)O)C(=O)NCC(=O)N1CCC[C@H]1C(=O)N[C@@H](Cc1ccccc1)C(=O)Nc1ccc([N+](=O)[O-])cc1 [Gly, Suc‐Ala‐Gly‐Pro‐Phe‐pNa] (Suc-AGPF-pNA)
Out: 0,084 ppm

In: Can you share its Combined chemical shift perturbation of full length Par17, 119F? I mean this molecule: CC(C)[C@H](NC(=O)[C@H](C)NC(=O)CCC(=O)O)C(=O)N1CCC[C@H]1C(=O)N[C@@H](Cc1ccccc1)C(=O)Nc1ccc([N+](=O)[O-])cc1 [Val, Suc‐Ala‐Val‐Pro‐Phe‐pNa] (Suc-AVPF-pNA)
Out: 0,125 ppm

Attention now shifts to the item below.
In: Can you share its Combined chemical shift perturbation of full length Par17, 119F? I mean this molecule: C[C@H](NC(=O)CCC(=O)O)C(=O)N[C@@H](CCCNC(=N)N)C(=O)N1CCC[C@H]1C(=O)N[C@@H](Cc1ccccc1)C(=O)Nc1ccc([N+](=O)[O-])cc1 [Arg, Suc‐Ala‐Arg‐Pro‐Phe‐pNa] (Suc-ARPF-pNA)
Out: 0,04577626 ppm
